Values from PubChem BioAssay AID938

Assay: qHTS Assay for Agonists of the Thyroid Stimulating Hormone Receptor: Activators of Intracellular cAMP Concentrations in Parental HEK 293; also: nearly all actives have a fitted effect of over 55% in size; as to activation: % of control where 0% means no effect
Settings: parental HEK293 CNG cAMP sensor, membrane potential fluorescence; series mostly up to 57.1 µM
In all, about 73,000 compounds went through this assay and about 1,800 (2.5%) were called active. Another 13% or so got no clear call; they are omitted. Calls follow the shape of the dose curve; as a rule, active = well fitted activation curve with a large enough effect; inconclusive = small, poorly fitted or top-dose-only effect; inactive = no such curve, though single readings can be large or run the other way. Only a selection was taken, and actives are over-represented in it overall.
Possible outcomes: active, inactive

>>> classification("CC(=O)c1cnc(Nc2nc(C)c3cc(C)ccc3n2)nc1C")
"inactive"
>>> classification("O=C(CN1C(=O)CSc2ncccc21)N1CCOCC1")
"inactive"
>>> classification("COc1ccc(OC)c(C(=O)c2coc3ccc(OC)cc23)c1")
"active"

====

Assay: qHTS Assay for Agonists of the Thyroid Stimulating Hormone Receptor: Activators of Intracellular cAMP Concentrations in Parental HEK 293; also: nearly all actives have a fitted effect of over 55% in size; as to activation: % of control where 0% means no effect
Settings: parental HEK293 CNG cAMP sensor, membrane potential fluorescence; series mostly up to 57.1 µM
The campaign covered roughly 73,000 compounds. About 1,800 (2.5%) were called active. Inconclusive results (about 13%) are left out. Calls follow the shape of the dose curve; as a rule, active = well fitted activation curve with a large enough effect; inconclusive = small, poorly fitted or top-dose-only effect; inactive = no such curve, though single readings can be large or run the other way. Many of the other results were omitted from the sample, so actives are more common in it than they were.
Possible outcomes: 1 (active), 0 (inactive)

>>> classification("CC(=O)c1nc(N2C(=O)C3CC=C(C)CC3C2=O)sc1C (stereo unspecified)")
0
>>> classification("CCCOc1ccc2c3c(c(=O)oc2c1OCCC)CCC3")
1
>>> classification("COc1ccccc1CNCc1cccs1")
0
>>> classification("O=C1C(c2ccccn2)=[N+]([O-])c2ccccc21")
0
>>> classification("COc1ccc(NS(=O)(=O)c2ccc(NC(=O)C(C)(C(F)(F)F)C(F)(F)F)cc2)nn1")
0
>>> classification("O=C(CN1CCN(c2ccccc2F)CC1)c1ccc2c(c1)OCO2")
0
>>> classification("Clc1ccccc1-c1cc(NCCN2CCOCC2)ncn1")
0
>>> classification("CC(C)N(CCNC(=O)c1ccc(-n2c(=O)c(=O)[nH]c3ccccc32)cc1)C(C)C")
0
>>> classification("CCOc1ccccc1C(=O)NCc1ccco1")
0
>>> classification("CNc1nc(-c2ccccc2OC)nc2ccccc12")
0
>>> classification("COCCn1c(C)cc(C(=O)CSc2ncnc3sc4c(c23)CCC4)c1C")
0
>>> classification("CC(=O)N1CCN(c2ccc(NCc3ccc(C(C)C)cc3)cc2)CC1")
1
>>> classification("O=C(COc1ccc2c3c(c(=O)oc2c1)CCC3)NC1CCCCC1")
0
>>> classification("COc1ccccc1-c1cc(NCc2cccs2)ncn1")
1
>>> classification("COc1ccc(NC(=O)CCNC(=O)Cn2ccc3ccccc3c2=O)c(OC)c1")
0
>>> classification("Cn1c(=O)c2c(nc(CN3CCOCC3)n2Cc2ccccc2)n(C)c1=O")
0

====

Assay: qHTS Assay for Agonists of the Thyroid Stimulating Hormone Receptor: Activators of Intracellular cAMP Concentrations in Parental HEK 293; also: nearly all actives have a fitted effect of over 55% in size; as to activation: % of control where 0% means no effect
Details: parental HEK293 CNG cAMP sensor, membrane potential fluorescence; series mostly up to 57.1 µM
Out of some 73,000 compounds screened, about 1,800 (2.5%) were called active. About 13% were inconclusive and are not listed. Calls come from the whole dose curve; as a rule, active = well fitted activation curve with a large enough effect; inconclusive = small, poorly fitted or top-dose-only effect; inactive = no such curve, though single readings can be large or run the other way. The list comes from a sample in which actives are over-represented; it also holds close analogues and randomly drawn compounds.
Possible outcomes: active, inactive

>>> classification("Cn1c(CNc2nc(-c3ccccc3)cs2)nnc1SCC(=O)c1ccccc1")
"inactive"
>>> classification("Cc1ccc(C(c2nnnn2C(C)(C)C)N2CCc3ccccc3C2)cc1 (stereo unspecified)")
"inactive"
>>> classification("CCn1nc(NC(=O)c2ccco2)c2cc3ccc(C)cc3nc21")
"inactive"
>>> classification("CCOC(=O)c1cc2occc2n1CC(=O)N1CCN(C(=O)c2ccco2)CC1")
"inactive"
>>> classification("CCCCOC(=O)NCN1C(=O)C2C3C=CC(C3)C2C1=O (stereo unspecified)")
"inactive"
>>> classification("CCc1cccc(C)c1NC(=O)CSc1nnc(-c2ccco2)n1N")
"inactive"
>>> classification("O=C(NCc1ccco1)c1cccn2c(=O)c3cc(Br)ccc3nc12")
"inactive"
>>> classification("Fc1ccccc1C(c1nnnn1Cc1ccc2c(c1)OCO2)N1CCN(Cc2ccccc2)CC1 (stereo unspecified)")
"inactive"
>>> classification("COc1ccc(C(=O)N2CCC3(CC2)CCN(c2ccccn2)CC3)cc1")
"inactive"
>>> classification("Cc1ccc(Cn2c(C)nc3c(c2=O)c2nc4ccccc4nc2n3Cc2ccco2)cc1")
"inactive"
>>> classification("O=C(c1cccc(F)c1)N1CCC2(CCCN(Cc3ccncc3)C2)CC1")
"inactive"
>>> classification("Cc1cccc(C)c1NC(=O)CCCSc1nnc(-c2ccco2)n1-c1ccccc1")
"active"
>>> classification("CCSC(C)CC1C/C(=N/O)c2c(C)noc2C1 (stereo unspecified)")
"inactive"
>>> classification("CCC(C)(C)n1nnnc1C(c1cccs1)N1CCN(Cc2ccccc2)CC1 (stereo unspecified)")
"active"
>>> classification("COCCCNC(=O)CSc1nc2ccc(N3CCOCC3)cc2c(=O)n1CCc1ccccc1")
"inactive"
>>> classification("O=C(c1cc(C(F)(F)F)cc(C(F)(F)F)c1)N1CCC[C@@]2(CCN(c3ccccn3)C2)C1")
"active"
>>> classification("CCOC(=O)c1[nH]c2c(c1C)C(=O)CC(c1ccc(N(C)C)cc1)C2 (stereo unspecified)")
"inactive"
>>> classification("CC1CCCCN1CC(=O)NCc1ccc2c(c1)OCO2 (stereo unspecified)")
"inactive"
>>> classification("O=C(Nc1ccccc1N1CCN(C(=O)c2ccccc2)CC1)c1ccc2c(c1)OCO2")
"inactive"
>>> classification("C1CCC2OC2C1 (stereo unspecified)")
"inactive"
>>> classification("CC(C)C(c1nnnn1C1CCCC1)N1CCN(c2ccccc2F)CC1 (stereo unspecified)")
"active"
>>> classification("CCCn1c(C)nc2c(NCCCCN(CC)CC)nc(C)nc21")
"inactive"
>>> classification("CCN1CCCC1CNc1ncnc2c1[nH]c1ccc(F)cc12 (stereo unspecified)")
"inactive"
>>> classification("Cc1ccc2c(c1)c1ncn(CCC3=CCCCC3)c(=O)c1n2C")
"inactive"
>>> classification("CCCOC(=O)c1[nH]c2c(c1C)C(=O)CC(c1cc(OC)c(OC)c(OC)c1)C2 (stereo unspecified)")
"active"
>>> classification("Cc1ccc(Cn2c(NC(=O)c3ccco3)nc3ccccc32)cc1")
"active"
>>> classification("CCOc1ccc(CN(Cc2ccco2)C(c2cccs2)c2nnnn2C(C)(C)C)cc1 (stereo unspecified)")
"inactive"
>>> classification("C=CCc1cccc2cc(C(=O)OCC)c(=O)oc12")
"inactive"
>>> classification("Cc1ccc(C(C(=O)NC2CCCCC2)N(C(=O)c2csnn2)C2CC2)o1 (stereo unspecified)")
"inactive"
>>> classification("COCCNC(=O)C(c1ccc(C)o1)N(Cc1cccs1)C(=O)c1snc(C(N)=O)c1N (stereo unspecified)")
"inactive"
>>> classification("COc1ccc(C(=O)NC(=O)CSc2nnc(-c3ccco3)n2-c2ccccc2)cc1")
"inactive"
